All figures here come from the RNAGym collection of RNA variant scans (doi:10.7554/elife.90254).

B1: LINE1-mini (parent)
chain: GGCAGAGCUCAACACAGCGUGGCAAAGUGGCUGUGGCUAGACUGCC

variants of: B1; experiment: self-cleavage, relative activity (ratio to wild type); higher = more cleavage; in vitro, sequencing; the parent is a self-cleaving ribozyme
outcome_measure: self-cleavage
Lab note: record the figure alone, no unit after it.

# annotated cases, reported self-cleavage shown
mutant_label: A39G G40A
self-cleavage: 0.05
//
mutant_label: G1C C8U
self-cleavage: 0.07
//
mutant_label: C15U G17U
self-cleavage: 0.11

Look up and report measured self-cleavage for this entry: G1A G33A
0.09

Give the measured self-cleavage for G30A G35C
0.08

Supply recorded self-cleavage for C37A C45G here.
0.17

Recall and state the measured self-cleavage for A14U C15A .
0.16

Let me know recorded self-cleavage for A24C U34C , thanks.
0.12

Annotate the variant G17A C31G with its measured self-cleavage.
0.08
